Field: pEC50. Provide a value for each of the compounds that follow.
Molecular target: PD-1/PD-L1 interaction (Homo sapiens, UniProt Q9NZQ7)
Construct: expressed in transfected cells; host or cells: CHO cells (aAPC-PD-L1) co-cultured with Jurkat cells overexpressing PD-1 and an NFAT-luciferase reporter
Sequence (Q9NZQ7 19-290): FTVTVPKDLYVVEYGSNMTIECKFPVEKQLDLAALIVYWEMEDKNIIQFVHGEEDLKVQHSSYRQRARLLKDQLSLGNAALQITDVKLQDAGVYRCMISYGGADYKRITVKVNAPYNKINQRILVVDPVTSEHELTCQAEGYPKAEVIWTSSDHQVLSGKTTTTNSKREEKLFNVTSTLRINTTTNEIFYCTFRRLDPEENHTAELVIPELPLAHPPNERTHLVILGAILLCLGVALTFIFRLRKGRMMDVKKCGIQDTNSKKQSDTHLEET
Test: PD-1/PD-L1 NFAT reporter co-culture assay
Format: cell-based
Details: Jurkat PD-1 NFAT-luciferase cells co-cultured with aAPC-PD-L1 CHO cells, 6 hrs at 37° C.; read-out: EC50 NFAT Luciferase
One number for each entry, as −log10 of the molar value.

Completed entries (count: 3):
COc1nc(OCc2cccc(-c3cccc(COc4cc(OCc5cncc(C#N)c5)c(CNC[C@@H](O)CC(=O)O)cc4Cl)c3C)c2C)ccc1CNCCO: 5.72
N#Cc1cncc(COc2nc(O[C@H]3CCc4c(-c5cccc(-c6ccc(OCCNCCO)cc6)c5Cl)cccc43)ccc2CNC[C@@H](O)CC(=O)O)c1: 6.80
Cc1c(COc2cc(OCc3cncc(C#N)c3)c(CNC[C@@H](O)CC(=O)O)cc2Cl)cccc1-c1cccc(-c2ccc(C3=NCCN3)c(OCCCC#N)n2)c1C: 7.03

Turning now to a further compound:
Recorded result, COc1cc(OCc2cccc(-c3cccc(COc4cc(OCc5cncc(C#N)c5)c(CNC[C@H](O)C(=O)O)cc4Cl)c3C)c2C)c(Cl)cc1CNC[C@H](O)C(=O)O , pEC50: 6.29

---

For each entry below, report its IC50 value.
Target: PD-1/PD-L1 (Homo sapiens, UniProt Q9NZQ7)
Sequence (Q9NZQ7 19-238 limits assumed): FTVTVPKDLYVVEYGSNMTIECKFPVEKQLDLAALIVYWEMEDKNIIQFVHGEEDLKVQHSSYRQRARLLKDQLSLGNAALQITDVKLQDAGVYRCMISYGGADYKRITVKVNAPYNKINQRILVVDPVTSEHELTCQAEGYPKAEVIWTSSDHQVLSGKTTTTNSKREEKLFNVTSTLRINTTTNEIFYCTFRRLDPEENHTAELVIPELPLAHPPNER
Experiment: PD-1/PD-L1 biochemical protein-protein interaction assay (ALPHA)
Conditions: 0.3 nM His tagged PD-L1, 2.5 nM biotinylated Fc-PD-1, 60 minutes at 25° C., read-out: IC50 PD-L1-PD-1 Alpha IC50-mono PD-L1-fcP-D1
One number for each entry, in nM.

Record excerpt, results attached:
COc1cc(-c2cccc(-c3cccc(COc4nc(OC)c(CNC[C@@H]5CCC(=O)N5)cc4Br)c3Cl)c2Cl)ccc1CNC[C@@H]1CCC(=O)N1: 1.24
COc1nc(-c2cccc(-c3cccc4c3CC[C@@H]4Oc3nc(OC)c(CNC[C@@H]4CCC(=O)N4)cc3Br)c2Br)ccc1CNC[C@@H]1CCC(=O)N1: 0.704

As a next step, examine the compound that follows.
IC50 on PD-1/PD-L1 (Homo sapiens, UniProt Q9NZQ7) for COc1nc(O[C@H]2CCc3c(-c4cccc(-c5ccc(CNC[C@@H]6CCC(=O)N6)c(F)c5)c4Cl)cccc32)c(Br)cc1CNC[C@@H]1CCC(=O)N1 is 0.865

---

Can you tell me IC50 for the items I'm about to list?
Target: PD-1/PD-L1 (Homo sapiens, UniProt Q9NZQ7)
Test: PD-1/PD-L1 biochemical protein-protein interaction assay (ALPHA)
Details: 0.3 nM His tagged PD-L1, 2.5 nM biotinylated Fc-PD-1, 60 minutes at 25° C., read-out: IC50 PD-L1-PD-1 Alpha IC50-mono PD-L1-fcP-D1
Answers are plain numbers, in nM.

COc1cc(-c2cccc(-c3cccc(-c4ccc(CNCCO)c(OC)c4)c3C)c2C)ccc1CNCCO: 2.44

Dear colleague, could you send me IC50 for each of the items below? Thanks.
1. Cc1c(COc2cc(OCc3cncc(C#N)c3)c(CNC[C@@H](O)CC(=O)O)cc2Cl)cccc1-c1cccc(-c2ccc3c(c2)c(C)nn3CCNC[C@@H](O)CC(=O)O)c1C
2. Cc1c(COc2cc(OCc3cncc(C#N)c3)c(CN[C@@](C)(CO)C(=O)O)cc2Cl)cccc1-c1cccc(-c2ccc3c(c2)CCC3N(C)CCO)c1C (stereo partly drawn)

Reply:
1: 0.211; 2: 0.21
